systemTested: SD1-RBD of SARS-CoV-2 S (ancestral), aa 319-591 (SARS-CoV-2, ancestral (Wuhan-Hu-1; …, UniProt P0DTC2)
quantityMeasured: binding result

binder	reportedValue
rbd.038 (antibody, V domains shown) VH: QVQLVQSGAEVKKPGASVKVSCKASGYTFSGYYMHWVRQAPGQGLEWVGWISPTSGGTKYAQKFQGRVTMTRDTSITTVYMELNRLRSDDTAVYYCAREPFPYCTSDICHSNYFYYYAMDVWGQGTTVTVSS VL: QSALTQPPSASGSPGQSVTISCTGSSSDLGDHNYVSWYQQHPGKAPKVMIYEVSKRPSGVPDRFSGSKSGNTASLTVSGLQAEDEADYYCSSYAGSLYVFGTGTKVTVL	binds
rbd.049 (antibody, V domains shown) VH: QLQLQESGPGLVKPSETLSLSCTVSGGSISSKSDYWGWIRQSPGKGLEWIGSIYYTGTTYYNPSLKSRVSISLDKSKNQFSLKLNSLTAADTALYYCARDPSIAVATTVYFDAWGQGTLVTVSS VL: EIVLTQSPGTLSLSPGERATLSCRASESVKSNYLAWYQQKLGQPPRLLIFGASTRATGIPDRFSGSGSGTDFTLTISRLEPEDFAVYYCQQYHTSPPRYTFGQGTKLEIK	binds
rbd.045 (antibody, V domains shown) VH: QVQLQESGPGLVKPSETLSLTCTVSGGAFRSFFWTWIRQPPGKGLEWIGNIYYSGSTNYNPSLKSRVTISQDMSENQFSLKLSSVTAADTAVYYCARSQWLRGNFDHWGQGILVTVSS VL: NFMLTQPHSVSESPGKTVTISCTATSGYIASNYVQWYQQRPGSAPTTVIYEDNQRPSGVPDRFSGSIDSSSNSASLTISGLKPEDEADYYCQSFDTAYAVFGGGTQLTVL	binds

All figures here come from paper PMC9972897.
